Assay: NCI Yeast Anticancer Drug Screen. Data for the sgs1 mgt1 strain (AID 161)
Details: S. cerevisiae sgs1 mgt1 strain, at 50.0 µM
Procedure: Growth inhibition of yeast strains with defined genetic alterations is measured as a screen for potential anti-cancer activity. Selected strains with alterations in DNA damage repair or cell cycle control were exposed to compounds and growth inhibition was measured relative to vehicle treated controls. The strain used in this assay is sgs1 mgt1
This is part of a sample that, as a whole, favours compounds with a hit. Of some 79,000 tested, about 15% had one in any assay. Active and inactive are the calls of the source. Cut-off read from the data, not from the text of the source: active = growth inhibition above about 70%; inactive = the rest.
Your response should consist of one outcome taken from active, inactive

These recorded examples may help you get a feel for the data.
Compound	Assigned category
Fc1cccc2c1cc1ccc3cccc4ccc2c1c34	active
CCS(=O)(=O)/C=C\S(=O)(=O)CC	inactive
O=C1C(Cl)=CC(=NCl)C=C1Cl	active
CCCCCC(CN(C)C)C(=O)/C=C/c1ccc(Cl)cc1 (stereo unspecified)	active
CC(CCOP(=O)(O)OCCC(C)CC(C)(C)C)CC(C)(C)C (stereo unspecified)	inactive
O=C(O)/C=C/C(=O)Nc1cccc2ccccc12	inactive

Exam item: Tell me the recorded outcome of this test for "COC(=O)C(=Cc1c[nH]c2ccccc12)C(=O)OC" .
Marked response: inactive

Exam item: Try this compound next: NC1=NC2=C(CCCC2)C(c2cccs2)S1 (stereo unspecified)
Marked response: active

Exam item: Try this compound next: "c1ccc2c(CCc3ccncc3)c[nH]c2c1"
Marked response: inactive

Exam item: Try this compound next: "CC1=CC(=N/O)/C=CC/1=C(\C#N)c1ccccc1"
Marked response: active

Exam item: Try this compound next: "Cn1c(=O)c2c3oc(=O)cc(O)c3c(=O)n3c4ccccc4n(c1=O)c23"
Marked response: inactive

Exam item: Try this compound next: "Cc1cc(C(=O)c2ccccc2)ccc1O"
Marked response: inactive

Exam item: Try this compound next: "C#CC[N+](CC)(CC)CCNC(=O)CCCCCCCCCCCCCCC"
Marked response: active
